These data points were gathered from patent US11034658B2.

Parameter 'readout' = pKd; parameter 'system' = human RORγt ligand binding domain (RORγt LBD) (Homo sapiens (Human), UniProt P51449).
Sequence (P51449 other isoform, or with tags, fused parts or gaps): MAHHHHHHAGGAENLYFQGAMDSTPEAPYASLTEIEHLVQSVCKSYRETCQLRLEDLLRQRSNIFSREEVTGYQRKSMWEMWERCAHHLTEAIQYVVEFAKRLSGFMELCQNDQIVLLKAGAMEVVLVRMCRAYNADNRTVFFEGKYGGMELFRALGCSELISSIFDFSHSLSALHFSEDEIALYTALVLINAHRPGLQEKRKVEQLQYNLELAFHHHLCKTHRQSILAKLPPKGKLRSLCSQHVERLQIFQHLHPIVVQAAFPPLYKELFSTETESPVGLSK
pKd: −log10 of the molar value.
assay metric: pKd

* CCn1nc(C(=O)NC[C@H]2CC[C@H](S(C)(=O)=O)CC2)c(Cl)c1-c1cnc(CC(C)(C)C(F)F)cc1OC(F)F [Example 37] | 8.46
* CCc1cc(CCC(C)(C)C)ncc1-c1c(Cl)c(C(=O)NC[C@]2(O)CC[C@@H](S(C)(=O)=O)CC2)nn1CC [Example 59] | 7.46
* CCc1cc(C[C@@H](C)C(F)(F)F)ncc1-c1c(C)c(C(=O)NC[C@H]2CC[C@H](S(C)(=O)=O)CC2)nn1CC (relative stereo) [Example 58] | 7.37
* CCn1nc(C(=O)NC[C@H]2CC[C@H](S(N)(=O)=O)CC2)c(C)c1-c1cnc(CC(C)(C)C(F)(F)F)cc1OC(F)F [Example 12] | 8.37
* CCn1nc(C(=O)NC[C@H]2CC[C@H](S(C)(=O)=O)CC2)c(Cl)c1-c1cnc(C[C@H](C)C(F)(F)F)cc1OC(F)F (single isomer, unassigned) [Example 14] | 8.44
* CCn1nc(C(=O)NC[C@H]2CC[C@H](S(C)(=O)=O)CC2)c(Cl)c1-c1cnc(CC(C(F)(F)F)C(F)(F)F)cc1OC(F)F [Example 21] | 8.92
